Origin of measurements: ChEMBL document CHEMBL1134730

- Test protocol: The compound was evaluated for toxicity in NCI-60 tumor cells.
- Type: functional
- Particulars: Homo sapiens
*1 amine or outer side, *2 acyl side, *3 side chain or, on linkers, in order; H or OH if unused. Where a SMILES comes first, the peptide text is derived from it. Bridges are numbered along the chain shown (N, C = ends). [ ]: non-standard residue; d: D form. The star is where a group is joined. ξ: configuration not given here. X1 = CC[C@H](C)[C@@H](N[*:1])[C@@H](O)CC(=O)O[C@H](C(=O)[C@H](C)C(=O)[*:2])C(C)C; Benzoyl(4-benzoyl) = O=C(c1ccccc1)c1ccc(C(=O)*)cc1; NMeY = CN[C@@H](Cc1ccc(O)cc1)C(=O)O; dNMeL = CN[C@H](CC(C)C)C(=O)O; Ahx = NCCCCCC(=O)O; ξP = O=C(O)C1CCCN1
Property measured: LC50 (µM)
Could you give me the number in µM? Just the number is fine.

Using known records, supply LC50 for CC[C@H](C)[C@H]1NC(=O)[C@@H](NC(=O)[C@@H](CC(C)C)N(C)C(=O)CNC(=O)c2ccc(C(=O)c3ccccc3)cc2)[C@@H](C)OC(=O)[C@H](Cc2ccc(OC)cc2)N(C)C(=O)C2CCCN2C(=O)[C@H](CC(C)C)NC(=O)[C@@H](C)C(=O)[C@H](C(C)C)OC(=O)C[C@@H]1O (some centres undefined) ({Benzoyl(4-benzoyl)}-G[dNMeL]T[X1]L[ξP][NMeY](Me); ester 3-C)
23

Please supply the value of reported LC50 for the item CC[C@H](C)[C@H]1NC(=O)[C@@H](NC(=O)[C@@H](CC(C)C)N(C)C(=O)CCCCCNC(=O)c2ccc(C(=O)c3ccccc3)cc2)[C@@H](C)OC(=O)[C@H](Cc2ccc(OC)cc2)N(C)C(=O)C2CCCN2C(=O)[C@H](CC(C)C)NC(=O)[C@@H](C)C(=O)[C@H](C(C)C)OC(=O)C[C@@H]1O (some centres undefined) ({Benzoyl(4-benzoyl)-Ahx}-[dNMeL]T[X1]L[ξP][NMeY](Me); ester 2-C)
19

Supply measured LC50 of CC[C@H](C)[C@H]1NC(=O)[C@@H](NC(=O)[C@@H](CC(C)C)N(C)C(=O)c2ccc(C(=O)c3ccccc3)cc2)[C@@H](C)OC(=O)[C@H](Cc2ccc(OC)cc2)N(C)C(=O)C2CCCN2C(=O)[C@H](CC(C)C)NC(=O)[C@@H](C)C(=O)[C@H](C(C)C)OC(=O)C[C@@H]1O (some centres undefined) ({Benzoyl(4-benzoyl)}-[dNMeL]T[X1]L[ξP][NMeY](Me); ester 2-C) in your reply.
15

Look up LC50 of CC[C@H](C)[C@H]1NC(=O)[C@@H](NC(=O)[C@@H](CC(C)C)N(C)C(=O)CCCCCNC(=O)CCCCCNC(=O)c2ccc(C(=O)c3ccccc3)cc2)[C@@H](C)OC(=O)[C@H](Cc2ccc(OC)cc2)N(C)C(=O)C2CCCN2C(=O)[C@H](CC(C)C)NC(=O)[C@@H](C)C(=O)[C@H](C(C)C)OC(=O)C[C@@H]1O (some centres undefined) and report it.
48
